Source listed as PubChem BioAssay.

Recorded viability, one value per entry.
Assay: SK-BR-3 cell growth inhibitors, pilot screen, 24 h, human (AID 572);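 note: compound exposure lasted between 18 and 24 h rather than exactly 24 h; 100% = carrier-treated control wells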
Settings: SK-BR-3 viability, CellTiter-Glo luminescence, at 10 µM, stronger effect = lower value
MEASURED_PROPERTY: viability (%)

INSERT INTO measurements (compound, measured_number) VALUES
  ('COCCn1c(SCC(=O)Nc2nnc(C)s2)nnc1-c1ccncc1', 110),
  ('C/C(N)=C(/C#N)C(=O)CSc1nnc(Nc2cccc(C)c2)s1', 114),
  ('Cc1ccc(C(=O)N2CCCC(c3nc4c(nnn4Cc4ccccc4)c(=O)[nH]3)C2)cc1 (stereo not given)', 80.5),
  ('Cc1cc2c(cc(C(=O)NCc3cccnc3)n2Cc2ccc(Cl)cc2)o1', 92),
  ('CCOc1ccc(N(CC)C(=O)COc2cc(=O)n(C)c3ccccc23)cc1', 84.5),
  ('Nc1nonc1NC(=O)CSc1nc2ccccc2s1', 86),
  ('c1ccc(-n2c(Sc3cnccn3)nnc2-c2cccs2)cc1', 114),
  ('CC(C)OC(=O)CN1C(=O)C(C)(C)Oc2ccc(C(=O)NC3CC3)cc21', 96),
  ('CSCC[C@@H](Nc1nc(-c2ccccc2)nc2c1oc1ccccc12)C(=O)O', 91),
  ('CCOc1ccc(CN2C(=O)c3ccccc3C2C(=O)NCc2cccnc2)cc1 (stereo not given)', 96),
  ('COc1ccc(C(N)=O)cc1N', 77.5),
  ('COc1ccccc1C1c2c(oc3ccc(Cl)cc3c2=O)C(=O)N1c1cc(C)on1 (stereo not given)', 86.5),
  ('CCSc1nnc(NC(=O)c2ccc(C)o2)s1', 96.5),
  ('Cc1noc(C)c1S(=O)(=O)NCCN1CCN(c2ccccc2)CC1', 96),
  ('Cc1cc(C)c(-c2cc(C(=O)Nc3c(C)n(C)n(-c4ccccc4)c3=O)[nH]n2)c(O)c1', 99.5),
  ('CC(C)(C)n1cnc2cc(NS(=O)(=O)c3ccc(Br)cc3)ccc21', 104),
  ('CNC(=O)CC(C(=O)O)c1ccc(OCC(C)C)cc1 (stereo not given)', 90.5),
  ('O=C(Nc1nccs1)NC(C(F)(F)F)C(F)(F)F', 104),
  ('COc1cc(C)nc(OCCNC(=O)COc2ccc(Cl)cc2C)n1', 96.5),
  ('CCOC(OCC)P(=O)(C(C)C)C(C)C', 87),
  ('N#Cc1nc(COc2ccc(Br)cc2)oc1N1CCCC1', 99),
  ('Cc1ccccc1NC(=O)C1CCN(c2cnccn2)CC1', 98.5),
  ('COc1ccc2ccccc2c1CN1CCN(C)CC1', 97),
  ('CCNC(=O)Cn1cnc2c1c(=O)n(C)c(=O)n2C', 108),
  ('CCn1c(=O)cc(SCC(=O)N2CCN(C3CCCCC3)CC2)c2ccccc21', 88.5),
  ('O=C(NC1CCCc2ccccc21)C1CCN(S(=O)(=O)c2cnc[nH]2)CC1 (stereo not given)', 104),
  ('Cc1ccc(C(C)n2cc(C(=O)NCCN3CCN(C)CC3)nn2)cc1 (stereo not given)', 106),
  ('CCC(=O)N[C@@H]1CC(C(C)(C)NC(=O)CC)CC=C1C (stereo not given in full)', 105),
  ('O=C(Nc1ccc(S(=O)(=O)NC2CCCC2)cc1)c1cnccn1', 92),
  ('COc1ccc(NC(=O)CN2CCN(CC(=O)Nc3cc(OC)cc(OC)c3)CC2)cc1', 79),
  ('CC(Sc1nnnn1-c1ccccc1)C(=O)Nc1ccc(Cl)cn1 (stereo not given)', 87.5),
  ('CCCCn1c(=O)[nH]c(=O)c2c1nc(-c1ccncc1)n2CCOC', 108),
  ('COc1cc(C(=O)Nc2ccc3c(c2)C(=O)N(CCC(=O)O)C3=O)cc(OC)c1OC', 97.5),
  ('COc1ccc(NC(=O)Cn2nnc(-c3ccccc3N)n2)cc1OC', 106),
  ('COc1cc(OC)cc(-n2nnnc2SCC(=O)N2CCCC2)c1', 87),
  ('Nn1c(CSc2nc3ccccc3o2)nnc1CSc1nc2ccccc2o1', 86),
  ('CC1=C(C#N)C(c2ccoc2)C(C(=O)OCc2ccccc2)=C(N)S1 (stereo not given)', 100),
  ('CCOC(=O)C1CCN(C(=O)CSc2n[nH]c(=O)[nH]c2=O)CC1', 109),
  ('COc1ccc(NC(=O)CCCN2C(=O)C3C4C=CC(C4)C3C2=O)c(OC)c1 (stereo not given)', 110),
  ('COc1ccc(-c2noc(-c3ccccc3C(=O)Nc3cccnc3)n2)cc1OC', 89.5),
  ('CCOCCc1nnc(NC(=O)c2ccc(OC)c(OC)c2)s1', 107),
  ('CCCC(C(=O)NCc1ccco1)N(C(=O)CNS(=O)(=O)c1ccc(Cl)cc1)C1CCCC1 (stereo not given)', 122),
  ('Cc1nc2ccccn2c1P(=O)(N1CCCCC1)N1CCCCC1', 92.5),
  ('COc1ccc(C)cc1NC(=O)CSc1nnnn1Cc1ccccc1', 83),
  ('C=CCn1c(SCC2=C(C(=O)OCC)C(C)NC(=O)N2)nnc1C1CCCCC1 (stereo not given)', 100);
